- protocol summary: RNA encapsulation efficiency of LNP (Ribogreen fluorescence assay)
- Type: physicochemical
- condition parameters: LNP with the compound as amine lipid; Expt. 4; composition ratio (mol %) 50/9/38/3 for Cmpnd 49, 50/10/38.5/1.5 for the others
Kindly state Encapsulation (%) for each of the entries shown.

Input line: Which Encapsulation (%) reading was recorded for the compound CCCCC/C=C\C/C=C\CCCCCCCC(=O)OCC(COC(=O)CCCCCCC/C=C\C/C=C\CCCCC)OC(=O)CCC(CCCCC)OC(=O)NCCN(C)CC (stereo not drawn) ?
Output line: 96%

Input line: Which Encapsulation (%) reading was recorded for the compound CCCCC/C=C\C/C=C\CCCCCCCC(=O)OCC(COC(=O)CCCCCCC/C=C\C/C=C\CCCCC)OC(=O)CCC(CCCCCC)OC(=O)NCCN(C)CC (stereo not drawn) ?
Output line: 97%

Input line: Which Encapsulation (%) reading was recorded for the compound CCCCC/C=C\C/C=C\CCCCCCCC(=O)OCC(COC(=O)CCCCCCC/C=C\C/C=C\CCCCC)OC(=O)CCC(CCCCCCCCCCCC)OC(=O)NCCN(C)CC (stereo not drawn) ?
Output line: 98%

Input line: Which Encapsulation (%) reading was recorded for the compound CCCCC/C=C\C/C=C\CCCCCCCC(=O)OCC(COC(=O)CCCCCCC/C=C\C/C=C\CCCCC)OC(=O)CCC(CCCCCCCCCC)OC(=O)NCCN(C)CC (stereo not drawn) ?
Output line: 98%

Input line: Which Encapsulation (%) reading was recorded for the compound CCCCC/C=C\C/C=C\CCCCCCCC(=O)OCC(COC(=O)CCCCCCC/C=C\C/C=C\CCCCC)OC(=O)CCC(CCCCCCC)OC(=O)NCCN(C)CC (stereo not drawn) ?
Output line: 97%

Input line: Which Encapsulation (%) reading was recorded for the compound CCCCC/C=C\C/C=C\CCCCCCCC(=O)OCC(COC(=O)CCC(OCCCCCCCC)OCCCCCCCC)COC(=O)OCCCN(CC)CC (stereo not drawn) [Compound 49, reference compound] ?
Output line: 98%

###

- protocol summary: pKa of amine lipid by TNS fluorescence
- Assay type: physicochemical
- condition parameters: probe TNS (6-(p-toluidino)-2-naphthalenesulfonic acid sodium salt), unformulated amine lipid in ethanol, sodium phosphate buffers -9.0
Criterion: pKa meeting or surpassing 6. Met: Criterion met. Not met: Criterion not met.

Input line: Exam item: decide whether the reported pKa for CCCCC/C=C\C/C=C\CCCCCCCC(=O)OCC(COC(=O)CCCCCCC/C=C\C/C=C\CCCCC)OC(=O)CCC(CCCCCCCCCCCC)OC(=O)NCCN(C)CC (centres unmarked) is at least 6.
Output line: Criterion met

Input line: Exam item: decide whether the reported pKa for CCCCC/C=C\C/C=C\CCCCCCCC(=O)OCC(COC(=O)CCCCCCC/C=C\C/C=C\CCCCC)OC(=O)CCC(CCCCCCCC)OC(=O)NCCN(C)C (centres unmarked) is at least 6.
Output line: Criterion met

Input line: Exam item: decide whether the reported pKa for CCCCC/C=C\C/C=C\CCCCCCCC(=O)OCC(COC(=O)CCCCCCC/C=C\C/C=C\CCCCC)OC(=O)CCC(CCCCCC)OC(=O)NC(C)(C)CN1CCCC1 (centres unmarked) is at least 6.
Output line: Criterion not met

Input line: Exam item: decide whether the reported pKa for CCCCC/C=C\C/C=C\CCCCCCCC(=O)OCC(COC(=O)CCCCCCC/C=C\C/C=C\CCCCC)OC(=O)CCC(CC/C=C\CCCCC)OC(=O)NCCN(C)CC (centres unmarked) is at least 6.
Output line: Criterion met

Input line: Exam item: decide whether the reported pKa for CCCCC/C=C\C/C=C\CCCCCCCC(=O)OCC(COC(=O)CCCCCCC/C=C\C/C=C\CCCCC)OC(=O)CCC(CCCCC)OC(=O)OCCCN1CCCC1 (centres unmarked) is at least 6.
Output line: Criterion met

Input line: Exam item: decide whether the reported pKa for CCCCC/C=C\C/C=C\CCCCCCCC(=O)OCC(COC(=O)CCCCCCC/C=C\C/C=C\CCCCC)OC(=O)CCC(CCCCCC)OC(=O)NCC1CCCN1C (centres unmarked) is at least 6.
Output line: Criterion met

Input line: Exam item: decide whether the reported pKa for CCCCC/C=C\C/C=C\CCCCCCCC(=O)OCC(COC(=O)CCCCCCC/C=C\C/C=C\CCCCC)OC(=O)CCC(CCCCCC)OC(=O)OCCCN1CCCC1 (centres unmarked) is at least 6.
Output line: Criterion not met

Input line: Exam item: decide whether the reported pKa for CCCCC/C=C\C/C=C\CCCCCCCC(=O)OCC(COC(=O)CCCCCCC/C=C\C/C=C\CCCCC)OC(=O)CCC(CCCCCCCC)OC(=O)N(C)CCN(C)C (centres unmarked) is at least 6.
Output line: Criterion not met

###

Kindly state pKa for each of the entries shown.
- protocol summary: pKa of amine lipid by TNS fluorescence
- Type: physicochemical
- condition parameters: probe TNS (6-(p-toluidino)-2-naphthalenesulfonic acid sodium salt), unformulated amine lipid in ethanol, sodium phosphate buffers -9.0
Respond with the number and no other words.

Input line: Which pKa reading was recorded for the molecule CCCCC/C=C\C/C=C\CCCCCCCC(=O)OCC(COC(=O)CCCCCCC/C=C\C/C=C\CCCCC)OC(=O)CCC(CCCCCCCCCCCCCCCC)OC(=O)NCC1CCCN1C (stereo not drawn) [Compound 21] ?
Output line: 6.12

Input line: Which pKa reading was recorded for the molecule CCCCC/C=C\C/C=C\CCCCCCCC(=O)OCC(COC(=O)CCCCCCC/C=C\C/C=C\CCCCC)OC(=O)CCC(CCCCCCCC)OC(=O)OC1CCN(C)CC1 (stereo not drawn) [Compound 92] ?
Output line: 5.96

Input line: Which pKa reading was recorded for the molecule CCCCC/C=C\C/C=C\CCCCCCCC(=O)OCC(COC(=O)CCCCCCC/C=C\C/C=C\CCCCC)OC(=O)CCC(CCCCCC)OC(=O)NCCN1CCCCC1 (stereo not drawn) [Compound 78] ?
Output line: 5.93

###

- protocol summary: LNP average particle size and polydispersity by dynamic light scattering
- Assay type: physicochemical
- condition parameters: LNP with the compound as amine lipid; Expt. 9; composition ratio (mol %) 50/9/38/3 for Cmpnd 49, 50/10/38.5/1.5 for the others
property measured: Num Ave Size (nm)
The answer is to be given in nm; state only the numeric part.

Input line: Which Num Ave Size (nm) reading was recorded for the molecule CCCCC/C=C\C/C=C\CCCCCCCC(=O)OCC(COC(=O)CCCCCCC/C=C\C/C=C\CCCCC)OC(=O)CCC(CCCCCC)OC(=O)NCCN1CCCC1 (racemic) [Compound 50] ?
Output line: 78

Input line: Which Num Ave Size (nm) reading was recorded for the molecule CCCCC/C=C\C/C=C\CCCCCCCC(=O)OCC(COC(=O)CCCCCCC/C=C\C/C=C\CCCCC)COC(=O)C(C)(C)C(CCCCCC)OC(=O)NCCN1CCCC1 (stereo not drawn) [Compound 100] ?
Output line: 83

Input line: Which Num Ave Size (nm) reading was recorded for the molecule CCCCC/C=C\C/C=C\CCCCCCCC(=O)OCC(COC(=O)CCCCCCC/C=C\C/C=C\CCCCC)OC(=O)CC[C@@H](CCCCCC)OC(=O)NCCN1CCCC1 [Compound 90] ?
Output line: 81

Input line: Which Num Ave Size (nm) reading was recorded for the molecule CCCCC/C=C\C/C=C\CCCCCCCC(=O)OCC(COC(=O)CCCCCCC/C=C\C/C=C\CCCCC)OC(=O)CCC(CC(CC)CC)OC(=O)NCCN1CCCC1 (stereo not drawn) [Compound 106] ?
Output line: 74

Input line: Which Num Ave Size (nm) reading was recorded for the molecule CCCCC/C=C\C/C=C\CCCCCCCC(=O)OCC(COC(=O)CCCCCCC/C=C\C/C=C\CCCCC)OC(=O)CCC(CC/C=C\CCCCC)OC(=O)NCCN(C)CC (stereo not drawn) [Compound 107] ?
Output line: 72

Input line: Which Num Ave Size (nm) reading was recorded for the molecule CCCCC/C=C\C/C=C\CCCCCCCC(=O)OCC(COC(=O)CCCCCCC/C=C\C/C=C\CCCCC)OC(=O)CC[C@H](CCCCCC)OC(=O)NCCN1CCCC1 [Compound 89] ?
Output line: 73

Input line: Which Num Ave Size (nm) reading was recorded for the molecule CCCCC/C=C\C/C=C\CCCCCCCC(=O)OCC(COC(=O)CCCCCCC/C=C\C/C=C\CCCCC)OC(=O)CCC(CC/C=C\CCCCC)OC(=O)NCCN1CCCC1 (stereo not drawn) [Compound 108] ?
Output line: 73

Input line: Which Num Ave Size (nm) reading was recorded for the molecule CCCCC/C=C\C/C=C\CCCCCCCC(=O)OCC(COC(=O)CCCCCCC/C=C\C/C=C\CCCCC)OC(=O)CCC(CCC(C)CCCC(C)C)OC(=O)NCCN1CCCC1 (stereo not drawn) [Compound 105] ?
Output line: 64

Input line: Which Num Ave Size (nm) reading was recorded for the molecule CCCCC/C=C\C/C=C\CCCCCCCC(=O)OCC(COC(=O)CCC(OCCCCCCCC)OCCCCCCCC)COC(=O)OCCCN(CC)CC (stereo not drawn) [Compound 49, reference compound] ?
Output line: 70
